Test: Selectivity index, ratio of cytotoxicity against human BT549 cells to IC50 for Cryptococcus neoformans ATCC 90113
Assay type: toxicity, cell-based, BT-549
Details: read-out: Selectivity Index
Quick list: selectivity ratio per entry.

>>> reported_value("Cc1ccc(-c2nc(C[C@H](NC(=O)OC(C)(C)C)C(=O)N[C@@H](CCCNC(=N)N)C(=O)NCc3ccccc3)c[nH]2)cc1")
"> 1.7"
>>> reported_value("Cc1ccc(-c2nc(C[C@H](NC(=O)[C@@H](N)Cc3c[nH]c4ccccc34)C(=O)NCc3ccccc3)c[nH]2)cc1")
"> 1.3"

Value lookup for selectivity ratio; key = COc1ccc(-c2nc(C[C@H](NC(=O)OC(C)(C)C)C(=O)N[C@@H](CCCNC(=N)N)C(=O)NCc3ccccc3)c[nH]2)cc1
> 1.7

And N=C(N)NCCC[C@H](NC(=O)[C@@H](N)Cc1c[nH]c(-c2cccc3ccccc23)n1)C(=O)NCc1ccccc1 ?
> 16.1

And N=C(N)NCCC[C@H](NC(=O)[C@@H](N)Cc1c[nH]c(-c2ccc(-c3ccccc3)cc2)n1)C(=O)NCc1ccccc1 ?
> 50

And CC(C)(C)OC(=O)N[C@@H](Cc1c[nH]c(-c2ccccc2)n1)C(=O)N[C@@H](CCCNC(=N)N)C(=O)NCc1ccccc1 ?
> 3.9

And Cc1ccc(-c2nc(C[C@H](N)C(=O)N[C@@H](CCCNC(=N)N)C(=O)NCc3ccccc3)c[nH]2)cc1 ?
> 4.7
